# TESTED ON: CDK7/Cyclin H/MNAT1 (Homo sapiens, UniProt P50613)
# Construct: purchased Invitrogen PR6749B
# Sequence (P50613 whole entry): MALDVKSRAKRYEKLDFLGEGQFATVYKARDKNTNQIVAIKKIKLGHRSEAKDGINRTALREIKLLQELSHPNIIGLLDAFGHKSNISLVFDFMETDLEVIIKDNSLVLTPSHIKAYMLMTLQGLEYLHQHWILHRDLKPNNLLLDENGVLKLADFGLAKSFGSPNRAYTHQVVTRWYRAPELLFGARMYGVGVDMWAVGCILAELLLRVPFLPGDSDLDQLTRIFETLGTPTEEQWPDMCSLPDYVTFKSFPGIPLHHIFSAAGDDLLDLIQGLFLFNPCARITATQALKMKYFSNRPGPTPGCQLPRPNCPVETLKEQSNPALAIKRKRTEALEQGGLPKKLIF
# Sequence (P51946 whole entry partner): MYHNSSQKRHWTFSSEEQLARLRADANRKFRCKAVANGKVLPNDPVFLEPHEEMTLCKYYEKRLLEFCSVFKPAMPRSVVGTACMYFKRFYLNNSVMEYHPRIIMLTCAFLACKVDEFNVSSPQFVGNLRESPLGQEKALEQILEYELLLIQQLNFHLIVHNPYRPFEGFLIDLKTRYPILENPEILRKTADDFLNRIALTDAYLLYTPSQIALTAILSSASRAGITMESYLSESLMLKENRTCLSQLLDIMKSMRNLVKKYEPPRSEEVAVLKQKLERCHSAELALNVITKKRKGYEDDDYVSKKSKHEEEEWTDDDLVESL
# Sequence (P51948 whole entry partner): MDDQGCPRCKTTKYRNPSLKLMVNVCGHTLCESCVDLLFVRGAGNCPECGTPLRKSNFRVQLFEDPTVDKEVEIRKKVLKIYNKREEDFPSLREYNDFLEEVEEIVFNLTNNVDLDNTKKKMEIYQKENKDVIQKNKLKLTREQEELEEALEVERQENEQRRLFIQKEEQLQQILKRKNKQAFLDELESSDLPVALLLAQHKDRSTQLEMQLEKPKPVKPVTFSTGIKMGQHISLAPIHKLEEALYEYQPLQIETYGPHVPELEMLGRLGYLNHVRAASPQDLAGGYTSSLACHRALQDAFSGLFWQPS
# ASSAY: Enzymatic assay for CDK7 (FRET based LANCE Ultra kinase assay)
# Format: biochemical
# SETUP CONDITIONS: CDK7 over CDK2
RECORDED METRIC: CDK2/CDK7: Selectivity of CDK7 inhibition over CDK2 inhibition

In one line, give reported CDK2/CDK7: Selectivity of CDK7 inhibition over CDK2 inhibition of the entry CC(C)c1cnn2c(N[C@H](C)c3ccccc3-c3cc4ccccc4[nH]3)nc(N3CCC(N)CC3)nc12 . C (C=less than 20 fold)

Note down CDK2/CDK7: Selectivity of CDK7 inhibition over CDK2 inhibition recorded for CC(C)c1cnn2c(NCc3ccccc3-c3ccc4[nH]ncc4c3)nc(N3CCC(N)CC3)nc12 C (C=less than 20 fold)
